// provenance: patent US20240158446A1

TARGET SYSTEM: UniProtKB P01116
Sequence (P01116 whole entry): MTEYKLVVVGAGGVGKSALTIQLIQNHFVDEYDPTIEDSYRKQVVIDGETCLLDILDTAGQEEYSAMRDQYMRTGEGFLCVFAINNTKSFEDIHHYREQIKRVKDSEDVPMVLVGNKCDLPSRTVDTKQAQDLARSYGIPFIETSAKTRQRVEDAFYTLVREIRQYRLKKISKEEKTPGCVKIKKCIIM
EXPERIMENTAL DETAILS: Binding to KRAS by surface plasmon resonance (SPR), Single Cycle Kinetics
EXPERIMENTAL PARAMETERS: SPR Single Cycle Kinetics, GDP-bound KRAS wild-type protein, 1:1 binding model; read-out: KRAS KD
*1 amine or outer side, *2 acyl side, *3 side chain or, on linkers, in order; H or OH if unused. Where a SMILES comes first, the peptide text is derived from it. Bridges are numbered along the chain shown (N, C = ends). [ ]: non-standard residue; d: D form. The star is where a group is joined. hPhe(3-Cl-4-CF3) = N[C@@H](CCc1ccc(C(F)(F)F)c(Cl)c1)C(=O)O; X32 = COCCN([C@@H](Cc1ccc(C(F)(F)F)cc1)C(=O)[*:2])[*:1]; NMeGly(cPent) = CN[C@H](C(=O)O)C1CCCC1; NMeD = CN[C@@H](CC(=O)O)C(=O)O; NMeL = CN[C@@H](CC(C)C)C(=O)O; Morpholide = C1CN(*)CCO1; Ac5c = NC1(C(=O)O)CCCC1; Sar = CNCC(=O)O
VALUE KIND: Kd

>>> data_value("CCO[C@@H]1C[C@H]2C(=O)NC3(CCC3)C(=O)N(C)[C@@H](C3CCCC3)C(=O)N(C)[C@H](C(=O)N(C)CC)CC(=O)N(C)[C@@H](CC3CCC3)C(=O)N[C@@H]([C@@H](C)CC)C(=O)N(C)CC(=O)N(C)[C@H]3C/C=C\\CCN(C3=O)[C@@H](Cc3ccc(C(F)(F)F)cc3)C(=O)N(C)CC(=O)N[C@@H](CCc3ccc(C(F)(F)F)c(Cl)c3)C(=O)N2C1")
"0.14 nM"
>>> data_value("CC[C@H](C)[C@@H]1NC(=O)[C@H](CC(C)C)N(C)C(=O)C[C@@H](C(=O)N2CCOCC2)N(C)C(=O)[C@H](C2CCCCC2)N(C)C(=O)C2(CCCC2)NC(=O)[C@@H]2CCCN2C(=O)[C@H](CCc2cc(F)c(C(F)(F)F)c(F)c2)NC(=O)CN(C)C(=O)[C@H](Cc2ccc(C(F)(F)F)cc2)N2CCCC[C@@H](C2=O)N(C)C(=O)CN(C)C1=O")
"0.21 nM"
>>> data_value("CC[C@H](C)[C@@H]1NC(=O)[C@H](CC(C)C)N(C)C(=O)C[C@@H](C(=O)N2CCOCC2)N(C)C(=O)[C@H](C2CCCC2)N(C)C(=O)C2(CCCC2)NC(=O)[C@@H]2CCCN2C(=O)[C@H](CCc2ccc(C(F)(F)F)c(Cl)c2)NC(=O)CN(C)C(=O)[C@H](Cc2ccc(C(F)(F)F)cc2)N(CCOC)C(=O)CN(C)C(=O)CN(C)C1=O [PP0132] ([NMeL]I[Sar][Sar][X32][Sar][hPhe(3-Cl-4-CF3)]P[Ac5c][NMeGly(cPent)][NMeD]-Morpholide; lactam N-11)")
"0.2 nM"

* * *

# human lung cancer strain NCI-H441: IC50 values follow;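 also: cell proliferation inhibition after four days measured by CellTiter-Glo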
VALUE KIND: IC50

>>> data_value("CCC[C@H]1C(=O)N[C@@H](CC(C)C)C(=O)N(CC)CC(=O)N(C)[C@H]2C/C=C\\CCN(C2=O)[C@@H](Cc2ccc(C)cc2)C(=O)N(C)CC(=O)N[C@@H](CCc2ccc(C(F)(F)F)c(OC)c2)C(=O)N2C[C@H](OCC)C[C@H]2C(=O)NC2(CC(C)(C)C2)C(=O)N(C)[C@@H](C2CCCC2)C(=O)N(C)[C@H](C(=O)N(C)C)CC(=O)N1C")
"81.2 nM"
>>> data_value("CCO[C@@H]1C[C@H]2C(=O)NC3(CCC3)C(=O)N(C)[C@@H](C3CCCC3)C(=O)N(C)[C@H](C(=O)N3CCOCC3)CC(=O)N(C)[C@@H](Cc3ccc(Cl)c(Cl)c3)C(=O)N[C@@H]([C@@H](C)CC)C(=O)N(C)CC(=O)N(C)[C@H]3CCCCCN(C3=O)[C@@H](Cc3ccc(C(F)(F)F)cc3)C(=O)N(C)CC(=O)N[C@@H](CCc3cc(F)c(C(F)(F)F)c(F)c3)C(=O)N2C1")
"338 nM"
>>> data_value("CCOC[C@H]1C(=O)N[C@@H]([C@@H](C)CC)C(=O)N(C)CC(=O)N(C)[C@H]2C/C=C\\CCN(C2=O)[C@@H](Cc2ccc(C)cc2)C(=O)N(C)CC(=O)N[C@@H](CCc2ccc(C(F)(F)F)c(OC)c2)C(=O)N2C[C@H](OCC)C[C@H]2C(=O)NC2(CC(C)(C)C2)C(=O)N(C)[C@@H](C2CCCC2)C(=O)N(C)[C@H](C(=O)N(CC)CC)CC(=O)N1C")
"21.3 nM"
